Molecular target: c-Src SH2
Assay: SH2 binding enrichment of the phosphorylated peptide, bacterial display (enrichment ratio); higher = better substrate or ligand; peptides without Tyr show the background
Reported SH2 binding enrichment values for the following sequences.
Could you keep your reply to the number by itself?

* AKFPSYEKNKK [FOXL2_Y91_F90S] | 0.615

Next:
Lab request: please report SH2 binding enrichment under test system c-Src SH2 for FGGTVCHSPVS [PRC1_Y511_Y511C];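 also: peptide library displayed on the E. coli surface as eCPX fusions, selected cells deep-sequenced, score is each peptide's frequency after selection divided by its frequency in the input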
0.596

====

Test system: AncSZ
Assay: phosphorylation enrichment, bacterial display (enrichment ratio); higher = better substrate or ligand; peptides without Tyr show the background
Rule: 1 for phosphorylation enrichment not less than 0.7, -1 for anything less.

• KEAQVYQAFRL [SUCLG2_Y343_K347R] = -1

Please check the record ETLLYYGCRRS [POR_Y564] and state if its phosphorylation enrichment is at or above 0.7.
1

====

Target: MERTK (UniProt Q12866)
Sequence (Q12866 whole entry, looked up): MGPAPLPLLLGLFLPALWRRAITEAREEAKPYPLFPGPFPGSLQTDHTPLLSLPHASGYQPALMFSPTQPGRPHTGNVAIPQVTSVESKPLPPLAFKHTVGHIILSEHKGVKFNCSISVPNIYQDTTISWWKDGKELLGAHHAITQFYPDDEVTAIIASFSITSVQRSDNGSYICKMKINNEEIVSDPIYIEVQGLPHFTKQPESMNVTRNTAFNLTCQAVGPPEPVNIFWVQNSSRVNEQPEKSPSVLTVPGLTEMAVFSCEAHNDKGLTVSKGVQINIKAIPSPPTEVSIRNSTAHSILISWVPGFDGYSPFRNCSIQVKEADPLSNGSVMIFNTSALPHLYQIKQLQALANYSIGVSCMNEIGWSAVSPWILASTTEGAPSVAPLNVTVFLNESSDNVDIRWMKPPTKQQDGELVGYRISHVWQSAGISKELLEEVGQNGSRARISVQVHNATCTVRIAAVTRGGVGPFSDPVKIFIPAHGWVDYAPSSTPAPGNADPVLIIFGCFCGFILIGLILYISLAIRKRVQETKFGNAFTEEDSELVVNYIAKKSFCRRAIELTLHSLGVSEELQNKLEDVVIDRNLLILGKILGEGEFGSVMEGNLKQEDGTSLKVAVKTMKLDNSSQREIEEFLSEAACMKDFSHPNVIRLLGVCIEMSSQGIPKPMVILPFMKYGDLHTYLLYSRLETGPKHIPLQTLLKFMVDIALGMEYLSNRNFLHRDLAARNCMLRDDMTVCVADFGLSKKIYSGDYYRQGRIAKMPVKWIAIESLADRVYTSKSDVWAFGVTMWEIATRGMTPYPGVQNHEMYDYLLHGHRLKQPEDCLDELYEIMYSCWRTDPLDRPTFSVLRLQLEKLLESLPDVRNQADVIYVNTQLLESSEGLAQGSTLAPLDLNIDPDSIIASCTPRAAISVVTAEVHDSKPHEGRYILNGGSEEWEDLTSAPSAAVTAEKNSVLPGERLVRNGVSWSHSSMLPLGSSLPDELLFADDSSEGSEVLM
Assay: phosphorylation enrichment, bacterial display (enrichment ratio); higher = better substrate or ligand; peptides without Tyr show the background
Label Condition met when phosphorylation enrichment is at or above 0.4; anything below gets Condition not met.

The examples below pair each entry with its known result.
- MFVKSYTIHFS [F5_Y2153_YF]: Condition met
- NRVEIYEKTVE [CYFIP1_Y108]: Condition met
- TEGNEYVFRVA: Condition met
- QLRPGYFPIPV [BAG3_Y93_I94F]: Condition met

Kindly determine if phosphorylation enrichment recorded for RGVTHYILQTF [SLC39A4_Y359] is above or exactly 0.4.
Condition met

Follow-up item: AKAEICEMRPL [COX10_Y97_Y97C]
Condition met

What about this sequence? FDGKEYDPVEA [MAPRE2_Y167_YF]
Condition met

What about this sequence? SVVLPYEPPEV [TP53_Y220_V218L]
Condition met

What do you get for PVDVAYRHGFF [PLEC_Y2967_R2969H_YF] ?
Condition not met

And then SSPRRYTIAAL [TTR_Y125_G121S] , what is it?
Condition not met

How about VDTFWYKLLKR [EPM2A_Y86_F88L] ?
Condition not met

Try the sequence EAEALYQTKFQ [KRT73_Y325]
Condition met

Would you mind doing LFSLGYHQSRW [GANAB_Y396] as well?
Condition met

Same again, this time with KFANSYRMEPL [TCTE3_Y87]
Condition met

# repeat for TPTFPYLLPKS [PLD2_Y580_YF]
Condition met

Continue with KASGKYFAMKI [AKT3_Y173_YF]
Condition not met

Same thing, different sequence: LQKPMYEVQWK [KIT_Y553]
Condition met

====

Tested on: Fer (mouse)
Assay: phosphorylation enrichment, bacterial display (enrichment ratio); higher = better substrate or ligand; peptides without Tyr show the background
reported_property: phosphorylation enrichment
Please respond with just the number, no unit label.

- VLVSQYEKLDA [AMZ2_Y26_N30D]: 0.47
- IGEGTYRTVFK [CDK5_Y15_G16R]: 0.317
- GLRSYYETSKM [MAGED2_Y449]: 0.465

GET /values?readout=phosphorylation enrichment&system=Fer (mouse)&item= HICTAYKLVLA [DHCR24_Y190_E191K]
1.52

Continue with ETLLFYGCRRS [POR_Y564_YF]
0.465

Check KDQPDYKFQPR [SOX9_Y172_H169Q_YF] too.
0.381

What do you get for FFRCHYPLTTL [TNS4_Y644_R642C] ?
0.39

Next: RLLRGHDQFAF [HLA-B_Y137_YF]
0.316

Again, but for GESQGYDIMEP [MSH2_Y863]
0.441

Also ICGVSYDEYRY [CFTR_Y512_F508C] ?
0.599

KFDLMYAKLAF [TUBA1A_Y399_R402L] , same question.
0.632

Same question for PFTRNYFVQAV [CYBA_Y87_R90Q_YF] please.
1.25

Ok, now EAEALYQTKFQ [KRT73_Y325]
0.964

Next sequence up: CGASGYSATST [CERT1_Y143_S138C]
0.675

Query CKRQFYLYKGK [RSPO4_Y112] next
0.431

// repeat for FLTQHYDAEPQ [ANG_Y38_K41E] and report
0.511

Also need PGLRGYPGLSG [COL4A2_Y306] , thanks.
0.449

Also check FVKEPYIQSRF [HIPK4_Y175_YF]
0.43

Entry AKIDGYIISYR please
0.566

Would you mind doing MKGEFYRFLAE [YWHAG_Y131_D129E_YF] as well?
0.4

Values compiled from the supplement of paper PMC10065799.
